Test system: upland rice (Oryza sp., var. Tebonnet, RICE)
Experiment: Post-emerge test, crop safety
Assay type: in vivo
Conditions: post-emerge, 63 g ai/ha, crop damage rating 0-100 at 14 days after application
The compounds listed here are annotated with their Post-emerge Herbicidal Activity RICE.

# example entries with known answers
COc1cccc(OC)c1OC(=O)Nc1c(C)c(Cl)cc(F)c1-n1c(=O)cc(C(F)(F)F)n(C)c1=O	50
COc1c(Cl)cc(F)c(N2C(=O)c3ccccc3C2=O)c1NC(=O)c1ccc(F)cc1F	30
COc1ccc(COC(=O)Nc2c(C)c(Cl)cc(F)c2-n2c(=O)cc(C(F)(F)F)n(C)c2=O)cc1OC	10
COc1c(Cl)cc(F)c(N2C(=O)C3CCCCN3C2=S)c1NC(=O)c1ccc2ccccc2c1 (centres unmarked)	20
COc1c(Cl)cc(F)c(-n2nc(C)n(C(F)F)c2=O)c1NC(=O)c1ccc(F)cc1F	60
Cc1cccc(COC(=O)Nc2c(C)c(Cl)cc(F)c2-n2c(=O)cc(C(F)(F)F)n(C)c2=O)c1	60
Cc1c(Cl)cc(F)c(-n2c(=O)cc(C(F)(F)F)n(C)c2=O)c1NC(=O)OCc1cccc([N+](=O)[O-])c1	50

Would you kindly look at the next entry?
Query string: GET /values?readout=Post-emerge Herbicidal Activity RICE&item= COc1c(Cl)cc(F)c(-n2nnn(CCCF)c2=O)c1NC(=O)COCc1ccccc1
Result string: 60
